Test Description: Measured activity expressed as ID50 (analogue)/ID50 (paclitaxel), where ID50 is the concentration of compound leading to 50% inhibition of the rate microtubule disassembly
Format: functional
Quantity: Activity

Molecule	Assay Result
C/C=C/C(=O)O[C@H]1C[C@@]2(O)[C@@H](OC(=O)c3ccccc3)[C@H]3[C@](C)(C(=O)[C@H](OC(C)=O)C(=C1C)C2(C)C)[C@@H](O)CC1OC[C@]13OC(C)=O (some centres undefined)	100
CC(=O)O[C@@]12COC1C[C@H](O)[C@@]1(C)C(=O)[C@H](O)C3=C(C)[C@@H](OC(=O)[C@H](O)[C@@H](CC(C)C)NC(=O)OC(C)(C)C)C[C@@](O)([C@@H](OC(=O)c4ccccc4)[C@@H]12)C3(C)C (some centres undefined)	0.78
CC(=O)O[C@@]12COC1C[C@H](O)[C@@]1(C)C(=O)[C@H](O)C3=C(C)[C@@H](OC(=O)[C@@H](O)[C@H](N)c4ccccc4)C[C@@](O)([C@@H](OC(=O)c4ccccc4)[C@@H]12)C3(C)C (some centres undefined)	30
CCOC(=O)N[C@@H](c1ccccc1)[C@@H](O)C(=O)O[C@H]1C[C@@]2(O)[C@@H](OC(=O)c3ccccc3)[C@H]3[C@@](C)([C@@H](O)CC4OC[C@]43OC(C)=O)[C@@H](O)[C@H](OC(C)=O)C(=C1C)C2(C)C (some centres undefined)	0.82
CC(=O)O[C@H]1C(=O)[C@]2(C)[C@@H](O)CC3OC[C@@]3(OC(C)=O)[C@H]2[C@H](OC(=O)c2ccccc2)[C@]2(O)C[C@H](OC(=O)[C@H](O)[C@H](NC(=O)OC(C)(C)C)c3ccccc3)C(C)=C1C2(C)C (some centres undefined)	0.5
CC(=O)O[C@@H]1C2=C(C)[C@@H](OC(=O)[C@H](O)[C@@H](NC(=O)OC(C)(C)C)c3ccccc3)C[C@@](O)([C@@H](OC(=O)c3ccccc3)[C@H]3[C@@](C)([C@@H](O)CC4OC[C@]43OC(C)=O)[C@H]1O)C2(C)C (some centres undefined)	0.87
CO[C@H]1CC2OC[C@@]2(OC(C)=O)[C@H]2[C@H](OC(=O)c3ccccc3)[C@]3(O)C[C@H](OC(=O)[C@H](O)[C@@H](NC(=O)OC(C)(C)C)c4ccccc4)C(C)=C([C@@H](OC(C)=O)[C@H](O)[C@]12C)C3(C)C (some centres undefined)	1.74
CC(=O)O[C@@]12COC1C[C@H](O)[C@@]1(C)C(=O)[C@H](O)C3=C(C)[C@@H](OC(=O)CCc4ccccc4)C[C@@](O)([C@@H](OC(=O)c4ccccc4)[C@@H]12)C3(C)C (some centres undefined)	17
CC(=O)O[C@H]1C(=O)[C@]2(C)[C@@H](O)CC3OC[C@@]3(OC(C)=O)[C@H]2[C@H](OC(=O)c2ccccc2)[C@]2(O)C[C@H](OC(=O)[C@H](O)[C@H](NC(=O)C(C)(C)C)c3ccccc3)C(C)=C1C2(C)C (some centres undefined)	2.6
